# Test system: Escherichia coli TOP10
# test-summary: shrunken log2 fold change of peptide-encoding DNA abundance (4.5 h post-induction vs induction); higher = less antimicrobial activity (less host growth inhibition)
# condition-info: time post-induction: 4.5 h; library: site-saturation at positions 5, 18, 19, 20

| residue-codes | shrunken log2 fold change |
| --- | --- |
| RRIRCRPPRLPRPRPRPDSVPRP | -0.894 |
| RRIRRRPPRLPRPRPRPAMRPRP | 0.538 |
| RRIRRRPPRLPRPRPRPDDNPRP | 0.18 |
| RRIRYRPPRLPRPRPRPFVPPRP | -0.285 |
| RRIRWRPPRLPRPRPRPVTVPRP | -0.194 |
| RRIRRRPPRLPRPRPRPDIRPRP | -0.294 |
| RRIRMRPPRLPRPRPRPYLRPRP | 0.0522 |
| RRIRYRPPRLPRPRPRPSKPPRP | -0.833 |
| RRIRSRPPRLPRPRPRPKFDPRP | -0.081 |
| RRIRERPPRLPRPRPRPPIAPRP | 0.13 |
| RRIRGRPPRLPRPRPRPVTIPRP | 0.0068 |
| RRIRNRPPRLPRPRPRPAFSPRP | -0.183 |
| RRIRFRPPRLPRPRPRPDLTPRP | -0.181 |
| RRIRCRPPRLPRPRPRPDLPPRP | -0.265 |
| RRIRTRPPRLPRPRPRPVIHPRP | 0.0146 |
| RRIRDRPPRLPRPRPRPIKSPRP | -0.236 |
| RRIRWRPPRLPRPRPRPLLVPRP | 0.172 |
| RRIRKRPPRLPRPRPRPRPRPRP | 1.01 |
| RRIRWRPPRLPRPRPRPSIFPRP | -0.396 |
| RRIRCRPPRLPRPRPRPTVLPRP | -0.174 |
| RRIRSRPPRLPRPRPRPHPGPRP | 0.00228 |
| RRIRRRPPRLPRPRPRPFTLPRP | -0.2 |
| RRIRNRPPRLPRPRPRPCFKPRP | -0.0138 |
| RRIRVRPPRLPRPRPRPFMTPRP | 0.127 |
| RRIRERPPRLPRPRPRPGTMPRP | 0.0721 |

* * *

# Test system: Escherichia coli TOP10
# test-summary: shrunken log2 fold change of peptide-encoding DNA abundance (4.5 h post-induction vs induction); higher = less antimicrobial activity (less host growth inhibition)
# condition-info: time post-induction: 4.5 h; library: site-saturation at positions 5, 18, 19, 20
Assign t whenever shrunken log2 fold change does not fall below -0.1; assign f whenever it does.

| residue-codes | experimental-target | class-name |
| --- | --- | --- |
| RRIRPRPPRLPRPRPRPGQYPRP | Escherichia coli TOP10 | t |
| RRIRKRPPRLPRPRPRPYIPPRP | Escherichia coli TOP10 | f |
| RRIRSRPPRLPRPRPRPDVRPRP | Escherichia coli TOP10 | t |
| RRIRSRPPRLPRPRPRPQELPRP | Escherichia coli TOP10 | f |
| RRIRVRPPRLPRPRPRPPPDPRP | Escherichia coli TOP10 | t |
| RRIRKRPPRLPRPRPRPLFDPRP | Escherichia coli TOP10 | t |

* * *

# Tested on: Escherichia coli TOP10;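 note: peptides expressed intracellularly from a pBAD plasmid library in pooled LB shake-flask culture, induced with 0.3% L-arabinose, DNA abundance read by NGS, three biological replicates, DESeq2 with apeglm shrinkage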
# test-summary: shrunken log2 fold change of peptide-encoding DNA abundance (4.5 h post-induction vs induction); higher = less antimicrobial activity (less host growth inhibition)
# condition-info: time post-induction: 4.5 h; library: site-saturation at positions 5, 18, 19, 20
Measured shrunken log2 fold change determines class: low class: < -0.2; middle class: ≥ -0.2 and < -0.02; high class: ≥ -0.02

| residue-codes | experimental-target | class-name |
| --- | --- | --- |
| RRIRVRPPRLPRPRPRPIDLPRP | Escherichia coli TOP10 | low class |
| RRIRVRPPRLPRPRPRPLFQPRP | Escherichia coli TOP10 | middle class |
| RRIRSRPPRLPRPRPRPWFPPRP | Escherichia coli TOP10 | low class |
| RRIRERPPRLPRPRPRPAELPRP | Escherichia coli TOP10 | middle class |
| RRIRGRPPRLPRPRPRPYDKPRP | Escherichia coli TOP10 | middle class |
| RRIRARPPRLPRPRPRPFCFPRP | Escherichia coli TOP10 | high class |
| RRIRQRPPRLPRPRPRPTQEPRP | Escherichia coli TOP10 | high class |
| RRIRARPPRLPRPRPRPVCAPRP | Escherichia coli TOP10 | high class |
| RRIRHRPPRLPRPRPRPDTLPRP | Escherichia coli TOP10 | high class |
| RRIRCRPPRLPRPRPRPYATPRP | Escherichia coli TOP10 | low class |
| RRIRCRPPRLPRPRPRPRSDPRP | Escherichia coli TOP10 | middle class |
| RRIRSRPPRLPRPRPRPKLSPRP | Escherichia coli TOP10 | high class |
| RRIRIRPPRLPRPRPRPRCFPRP | Escherichia coli TOP10 | middle class |
| RRIRNRPPRLPRPRPRPCDYPRP | Escherichia coli TOP10 | high class |
| RRIRSRPPRLPRPRPRPEMTPRP | Escherichia coli TOP10 | middle class |
| RRIRHRPPRLPRPRPRPGNIPRP | Escherichia coli TOP10 | low class |
| RRIRCRPPRLPRPRPRPDKGPRP | Escherichia coli TOP10 | high class |
| RRIRVRPPRLPRPRPRPTVQPRP | Escherichia coli TOP10 | middle class |
| RRIRDRPPRLPRPRPRPFHEPRP | Escherichia coli TOP10 | middle class |
| RRIRARPPRLPRPRPRPYYNPRP | Escherichia coli TOP10 | low class |
| RRIRCRPPRLPRPRPRPMSEPRP | Escherichia coli TOP10 | middle class |
| RRIRMRPPRLPRPRPRPSGAPRP | Escherichia coli TOP10 | high class |
| RRIRVRPPRLPRPRPRPYDIPRP | Escherichia coli TOP10 | low class |
| RRIRYRPPRLPRPRPRPIAGPRP | Escherichia coli TOP10 | middle class |
| RRIRCRPPRLPRPRPRPASNPRP | Escherichia coli TOP10 | low class |
| RRIRNRPPRLPRPRPRPKHCPRP | Escherichia coli TOP10 | middle class |
| RRIRMRPPRLPRPRPRPILWPRP | Escherichia coli TOP10 | high class |
| RRIRSRPPRLPRPRPRPYMAPRP | Escherichia coli TOP10 | low class |
| RRIRHRPPRLPRPRPRPYGMPRP | Escherichia coli TOP10 | middle class |
| RRIRYRPPRLPRPRPRPQLDPRP | Escherichia coli TOP10 | low class |
| RRIRPRPPRLPRPRPRPFMSPRP | Escherichia coli TOP10 | low class |
| RRIRHRPPRLPRPRPRPDQCPRP | Escherichia coli TOP10 | high class |
| RRIRSRPPRLPRPRPRPTVLPRP | Escherichia coli TOP10 | high class |
| RRIRYRPPRLPRPRPRPLFCPRP | Escherichia coli TOP10 | low class |
| RRIRQRPPRLPRPRPRPTFEPRP | Escherichia coli TOP10 | middle class |
| RRIRWRPPRLPRPRPRPMLVPRP | Escherichia coli TOP10 | high class |
| RRIRCRPPRLPRPRPRPWLCPRP | Escherichia coli TOP10 | middle class |
| RRIRERPPRLPRPRPRPFVQPRP | Escherichia coli TOP10 | low class |
| RRIRKRPPRLPRPRPRPTEDPRP | Escherichia coli TOP10 | high class |
| RRIRDRPPRLPRPRPRPGMQPRP | Escherichia coli TOP10 | high class |
| RRIRHRPPRLPRPRPRPYSWPRP | Escherichia coli TOP10 | low class |
| RRIRNRPPRLPRPRPRPGCHPRP | Escherichia coli TOP10 | low class |
| RRIRARPPRLPRPRPRPKFEPRP | Escherichia coli TOP10 | high class |
| RRIRNRPPRLPRPRPRPFYEPRP | Escherichia coli TOP10 | low class |
| RRIRGRPPRLPRPRPRPCTMPRP | Escherichia coli TOP10 | middle class |
